The measured values listed here are drawn from patent US9796753B2.

Test system: colon HCT-116
Assay: COMPARE screening (NCI human cancer cell line screen), cytotoxicity GI50
Format: cell-based
Details: colon HCT-116; concentration corresponding to 50% growth inhibition; read-out: cytotoxicity (GI50 in μM) colon HCT-116
recordedEndpoint: log10(GI50) (log10 of the value in µM)
Base-10 log of GI50, unit µM.

// known answers, use as guide
IN: Param item = COc1cc2c3c(n(CCCNCCCNCCCn4c5c(c6ccccc6c4=O)C(=O)c4ccccc4-5)c(=O)c2cc1OC)-c1cc2c(cc1C3=O)OCO2.O=C(O)C(F)(F)F.O=C(O)C(F)(F)F [Compound 17a] ; retrieve measured log10(GI50).
OUT: -1.66

IN: # repeat for COc1cc2c3c(n(CCNCCCNCCn4c5c(c6cc(OC)c(OC)cc6c4=O)C(=O)c4ccccc4-5)c(=O)c2cc1OC)-c1ccccc1C3=O.O=C(O)C(F)(F)F.O=C(O)C(F)(F)F [Compound 14k]
OUT: -1.35

IN: # repeat for CC(C)(C)OC(=O)N(CCCn1c2c(c3ccccc3c1=O)C(=O)c1ccccc1-2)CCN(CCCn1c2c(c3ccccc3c1=O)C(=O)c1ccccc1-2)C(=O)OC(C)(C)C [Compound 13b]
OUT: 1.15

IN: # repeat for CC(C)(C)OC(=O)N(CCCN(CCn1c2c(c3ccccc3c1=O)C(=O)c1ccccc1-2)C(=O)OC(C)(C)C)CCn1c2c(c3ccccc3c1=O)C(=O)c1ccccc1-2 [Compound 13a]
OUT: 1.36

***
IN: Param item = CC(C)(C)OC(=O)N(CCCCN(CCCn1c2c(c3ccccc3c1=O)C(=O)c1ccccc1-2)C(=O)OC(C)(C)C)CCCn1c2c(c3ccccc3c1=O)C(=O)c1ccccc1-2 [Compound 13d] ; retrieve measured log10(GI50).
OUT: 0.28

IN: # repeat for COc1cc2c3c(n(CCCNCCCNCCCn4c5c(c6cc(OC)c(OC)cc6c4=O)C(=O)c4ccccc4-5)c(=O)c2cc1OC)-c1ccccc1C3=O.O=C(O)C(F)(F)F.O=C(O)C(F)(F)F [Compound 14l]
OUT: -0.48

IN: # repeat for O=C(O)C(F)(F)F.O=C(O)C(F)(F)F.O=C1c2ccccc2-c2c1c1ccc([N+](=O)[O-])cc1c(=O)n2CCCNCCCNCCCn1c2c(c3ccc([N+](=O)[O-])cc3c1=O)C(=O)c1ccccc1-2 [Compound 14n]
OUT: 0.16

IN: # repeat for O=C(O)C(F)(F)F.O=C(O)C(F)(F)F.O=C1c2ccccc2-c2c1c1ccc([N+](=O)[O-])cc1c(=O)n2CCNCCCNCCn1c2c(c3ccc([N+](=O)[O-])cc3c1=O)C(=O)c1ccccc1-2 [Compound 14m]
OUT: -1.36

###

Tested on: breast MDA-MB-435
Assay: COMPARE screening (NCI human cancer cell line screen), cytotoxicity GI50
Format: cell-based
Conditions: breast MDA-MB-435; concentration corresponding to 50% growth inhibition; read-out: cytotoxicity (GI50 in μM) breast MDA-MB-435
recordedEndpoint: GI50 (µM)
Numbers only here, please. The scale is µM.

IN: Param item = COc1cc2c3c(n(CCNCCCNCCn4c5c(c6cc(OC)c(OC)cc6c4=O)C(=O)c4ccccc4-5)c(=O)c2cc1OC)-c1ccccc1C3=O.O=C(O)C(F)(F)F.O=C(O)C(F)(F)F [Compound 14k] ; retrieve measured GI50.
OUT: 0.813

***
IN: Param item = O=C(O)C(F)(F)F.O=C(O)C(F)(F)F.O=C1c2ccccc2-c2c1c1ccc([N+](=O)[O-])cc1c(=O)n2CCCNCCCNCCCn1c2c(c3ccc([N+](=O)[O-])cc3c1=O)C(=O)c1ccccc1-2 [Compound 14n] ; retrieve measured GI50.
OUT: 3.89

IN: # repeat for COc1cc2c3c(n(CCCNCCCNCCCn4c5c(c6cc(OC)c(OC)cc6c4=O)C(=O)c4ccccc4-5)c(=O)c2cc1OC)-c1ccccc1C3=O.O=C(O)C(F)(F)F.O=C(O)C(F)(F)F [Compound 14l]
OUT: 3.98

IN: # repeat for CN(CCCn1c2c(c3ccccc3c1=O)C(=O)c1ccccc1-2)CCCn1c2c(c3ccccc3c1=O)C(=O)c1ccccc1-2 [Compound 12d]
OUT: 1.55

###

System: renal SN12C
Assay: COMPARE screening (NCI human cancer cell line screen), cytotoxicity GI50
Type: cell-based
Label t when GI50 < 200 nM; otherwise f.

Recorded results for 5 molecules are shown here.
IN: Dear colleague, could you confirm whether GI50 of O=C1c2ccccc2-c2c1c1ccccc1c(=O)n2CCN1CCOCC1 [Compound 5j] falls below 200 nM? Thanks.
OUT: f

IN: # repeat for COc1ccc2c(c1)C(=O)c1c-2n(CCCNCCO)c(=O)c2cc([N+](=O)[O-])ccc12.Cl [Compound 5bm]
OUT: t

IN: # repeat for Cl.NCCCn1c2c(c3ccccc3c1=O)C(=O)c1ccccc1-2 [Compound 5am]
OUT: t

IN: # repeat for CN(C)CCCn1c2c(c3ccccc3c1=O)C(=O)c1ccccc1-2 [Compound 5d]
OUT: f

IN: # repeat for O=C(O)C(F)(F)F.O=C(O)C(F)(F)F.O=C1c2ccccc2-c2c1c1ccccc1c(=O)n2CCNCCNCCn1c2c(c3ccccc3c1=O)C(=O)c1ccccc1-2 [Compound 14c]
OUT: t

***
IN: Dear colleague, could you confirm whether GI50 of CN(C)CCCn1c2c(c3ccc([N+](=O)[O-])cc3c1=O)C(=O)c1ccccc1-2 [Compound 5c] falls below 200 nM? Thanks.
OUT: f

IN: # repeat for Cl.O=C1c2ccccc2-c2c1c1ccccc1c(=O)n2CCCNCCO [Compound 5bo]
OUT: f

###

System: colon HCT-116
Assay: COMPARE screening (NCI human cancer cell line screen), cytotoxicity GI50
Assay type: cell-based
Conditions: Homo sapiens, HCT-116, read-out: cytotoxicity (GI50) colon HCT-116
recordedEndpoint: GI50 (µM)
Numbers only here, please. The scale is µM.

// known answers, use as guide
IN: Param item = Cl.NCCCCCCCCCCn1c2c(c3ccccc3c1=O)C(=O)c1ccccc1-2 [Compound 5at, Hydrochloride] ; retrieve measured GI50.
OUT: 2.75

IN: # repeat for Cl.NCCCCCCCCCn1c2c(c3ccccc3c1=O)C(=O)c1ccccc1-2 [Compound 5as, Hydrochloride]
OUT: 6.46

IN: # repeat for Cl.NCCCCCn1c2c(c3ccccc3c1=O)C(=O)c1ccccc1-2 [Compound 5ao, Hydrochloride]
OUT: 0.2

***
IN: Param item = "O=C1c2ccccc2-c2c1c1ccc([N+](=O)[O-])cc1c(=O)n2CCCBr" ; retrieve measured GI50.
OUT: 3.47

IN: # repeat for "O=C1c2ccccc2-c2oc(=O)c3cc([N+](=O)[O-])ccc3c21"
OUT: 47.9

###

Measured GI50 accompanies every entry in the list below.
Test system: ovarian OVCAR-3
Assay: COMPARE screening (NCI human cancer cell line screen), cytotoxicity GI50
Format: cell-based
Numbers only here, please. The scale is µM.

IN: Write down the reported GI50 of "CC(C)(C)OC(=O)NCCCCCCCCCn1c2c(c3ccccc3c1=O)C(=O)c1ccccc1-2" , test system: ovarian OVCAR-3.
OUT: 28.8

IN: # repeat for "[N-]=[N+]=NCCCn1c2c(c3ccccc3c1=O)C(=O)c1ccccc1-2"
OUT: 7.94

Moving on to the next molecule.
IN: Write down the reported GI50 of O=C(O)C(F)(F)F.O=C(O)C(F)(F)F.O=C1c2ccccc2-c2c1c1ccccc1c(=O)n2CCCNCCCCNCCCn1c2c(c3ccccc3c1=O)C(=O)c1ccccc1-2 [Compound 14h] , test system: ovarian OVCAR-3.
OUT: 0.135

###

System: lung HOP-62
Test: COMPARE screening (NCI human cancer cell line screen), cytotoxicity GI50
Assay type: cell-based
recordedEndpoint: GI50 (µM)
Numbers only here, please. The scale is µM.

// known answers, use as guide
IN: Param item = "O=C1c2ccccc2-c2oc(=O)c3cc4c(cc3c21)OCO4" ; retrieve measured GI50.
OUT: 53.7

IN: # repeat for Cl.O=C1c2ccccc2-c2c1c1ccccc1c(=O)n2CCCCNCCCn1c2c(c3ccccc3c1=O)C(=O)c1ccccc1-2 [Compound 14b, Hydrochloride]
OUT: 0.028

IN: # repeat for NCCCn1c2c(c3ccccc3c1=O)C(=O)c1ccccc1-2 [Compound S-3, reference compound]
OUT: 0.2

Moving on to the next compound.
IN: Param item = "COc1ccc2c(c1)C(=O)c1c-2n(CCCNCCO)c(=O)c2ccccc12.Cl" ; retrieve measured GI50.
OUT: 0.026

###

Tested on: CNS SF-539
Assay: COMPARE screening (NCI human cancer cell line screen), cytotoxicity GI50
Assay type: cell-based
recordedEndpoint: GI50 (nM)
Numbers only here, please. The scale is nM.

// known answers, use as guide
IN: Param item = COc1cc2c3c(n(CCCN4CCCNCC4)c(=O)c2cc1OC)-c1cc2c(cc1C3=O)OCO2.Cl.Cl [Compound 5v, Dihydrochloride] ; retrieve measured GI50.
OUT: 145

IN: # repeat for "COc1cc2c3c(n(CCCn4cccn4)c(=O)c2cc1OC)-c1cc2c(cc1C3=O)OCO2"
OUT: 398

IN: # repeat for "O=C1c2ccccc2-c2c1c1ccc([N+](=O)[O-])cc1c(=O)n2CCCn1ccnc1"
OUT: 16

IN: # repeat for "CC(C)(C)OC(=O)NCCCCCCCCCn1c2c(c3ccccc3c1=O)C(=O)c1ccccc1-2"
OUT: 17800

IN: # repeat for O=C(O)C(F)(F)F.O=C(O)C(F)(F)F.O=C(O)C(F)(F)F.O=C1c2ccccc2-c2c1c1ccccc1c(=O)n2CCNCCNCCNCCn1c2c(c3ccccc3c1=O)C(=O)c1ccccc1-2 [Compound 14i]
OUT: 275

Moving on to the next compound.
IN: Param item = "Cl.NCCCn1c2c(c3ccccc3c1=O)C(=O)c1ccccc1-2" ; retrieve measured GI50.
OUT: 250
